# experiment_notes: NCI Yeast Anticancer Drug Screen. Data for the sgs1 mgt1 strain (AID 161);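 also: 0% = growth of cultures given vehicle only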
# condition_details: S. cerevisiae sgs1 mgt1 strain, at 50.0 µM, stronger effect = higher value
# Protocol: Growth inhibition of yeast strains with defined genetic alterations is measured as a screen for potential anti-cancer activity. Selected strains with alterations in DNA damage repair or cell cycle control were exposed to compounds and growth inhibition was measured relative to vehicle treated controls. The strain used in this assay is sgs1 mgt1
This is part of a sample that, as a whole, favours compounds with a hit. Of some 79,000 tested, about 15% had one in any assay.
Let's look at some molecules and their measured growth inhibition.
metric_name: growth inhibition (%)

INSERT INTO measurements (molecule, metric_name, unit_annotation, test_result) VALUES
  ('CNS(=O)(=O)c1ccc(C)cc1', 'growth inhibition', '%', 0.6),
  ('CCC/C=N\NS(=O)(=O)c1ccc(NC(C)=O)cc1', 'growth inhibition', '%', 11.6),
  ('CCCCN(CCCC)C(=O)C(=O)C(C#N)c1ccc(C)cc1 (stereo unspecified)', 'growth inhibition', '%', 6.15),
  ('NC(=O)[C@@H]1CCCN1C(=O)c1cccnc1', 'growth inhibition', '%', -12.9),
  ('Cc1nnc2sc(Cl)nn12', 'growth inhibition', '%', 48.1),
  ('CC(=O)Nc1ccc2ccccc2c1', 'growth inhibition', '%', 0.3);

###

# experiment_notes: NCI Yeast Anticancer Drug Screen. Data for the cln2 rad14 strain (AID 165);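 also: 0% = growth equal to vehicle treated cultures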
# condition_details: S. cerevisiae cln2 rad14 strain, at 50.0 µM, stronger effect = higher value
This is part of a sample that, as a whole, favours compounds with a hit. Of some 79,000 tested, about 15% had one in any assay.
metric_name: growth inhibition (%)

INSERT INTO results (compound, test_result) VALUES
  ('O=C1c2cc3ccccc3cc2NC(O)c2cccn21 (stereo not given)', 27.4),
  ('CCOC(C)Oc1ccccc1 (stereo not given)', 15.4),
  ('COc1ccc(/C=C2\N=C(NN)N=C2Cl)cc1', 23.4),
  ('CC(O)CCC(C)O (stereo not given)', -4.95),
  ('O=C(Cl)/C=C/c1ccccc1', -29.1),
  ('COc1ccc(CC2OC(C)CC(C)(C)O2)cc1 (stereo not given)', -55.8),
  ('CN(C)CCC(c1ccccc1)C(CO)c1ccccc1 (stereo not given)', 7.65),
  ('CCOC(=O)C(Nc1cccc2ccccc12)C(=O)OCC', -5.2),
  ('C=C1CC(CCCCCCC2CC(=C)C(=O)O2)OC1=O (stereo not given)', 2.3),
  ('COc1ccc(/C=N/NC(=O)c2ccc(N)cc2)c(OC)c1', -0.9),
  ('C=C1C(=O)OC2/C=C(/CO)C3(O)CC(O)C(C)(CC(OC(=O)/C(C)=C/C)C12)O3 (stereo not given)', 17.4),
  ('Nc1ccc(S(=O)(=O)NCCS(=O)(=O)O)cc1', -29.3),
  ('COC(=O)CCC(=O)c1ccc(OC)cc1', -0.95),
  ('CCN(CC)c1ccc(NC(=O)CCl)cc1', 1.45),
  ('Cn1nnnc1CCO', -0.55),
  ('COc1cc(C(C)Cl)ccc1OC(=O)c1ccccc1 (stereo not given)', -10.2),
  ('N#C/C(c1nc2ccccc2[nH]1)=c1\s/c(=C(/N)O)c(=N)n1-c1ccccc1', -30.1),
  ('NC(=S)N/N=c1\cc(C(=O)Nc2ccc([N+](=O)[O-])cc2[N+](=O)[O-])oc2ccccc12', -6),
  ('Cc1ccc(S(=O)(=O)C(Cl)(SCl)Sc2ccccc2)cc1 (stereo not given)', 47.3),
  ('NNC(=O)c1ccccc1Cl', 0.4);

The reported measurements were obtained from PubChem BioAssay (NCI).
